# Test system: methicillin-sensitive Staphylococcus aureus (MSSA)
# Method: MIC, two-fold agar dilution (CLSI), clinical isolates
# Assay type: cell-based
# Test parameters: strain MSSA 15-6
# Description: 1. The invention adopts the two-fold agar dilution method recommended by the operating procedure of antimicrobial susceptibility testing set by American Clinical and Laboratory Standards Institute (CLSI) to determine the Minimum Inhibitory Concentration (MIC) of the test samples against the tested strains.
Field 'label' (enum: True / False). Set to True when MIC (anti-bacterial activity) is strictly under 0.5 µg/mL; else False.

Example cases with answers are listed next.
compound="COC(=O)c1sccc1NC(=O)[C@@H]1CC2(CC2)CN1C(=O)[C@H](CC1CCCC1)CN(O)C=O [Example 34]" category_label=False
compound="O=CN(O)C[C@@H](CC1CCCC1)C(=O)N1CC2(CC2)C[C@H]1C(=O)Nc1ccncn1 [Example 27]" category_label=True
compound="O=CN(O)C[C@@H](CC1CCCC1)C(=O)N1CC2(CC2)C[C@H]1C(=O)N1CCS(=O)(=O)CC1 [Example 35]" category_label=False
compound="CCCC[C@H](CN(O)C=O)C(=O)N1CC2(CC2)C[C@H]1C(=O)Nc1ccncn1 [Example 16]" category_label=False
compound="CCCC[C@H](CN(O)C=O)C(=O)N1CC2(CC2)C[C@H]1C(=O)Nc1nc(C)cs1 [Example 19]" category_label=True

Input: In plain terms, does O=CN(O)C[C@@H](CC1CCCC1)C(=O)N1CC2(CC2)C[C@H]1C(=O)NC1CC1 [Example 32] come in under 0.5 µg/mL for MIC (anti-bacterial activity)?
Output: False

Input: In plain terms, does CCCC[C@H](CN(O)C=O)C(=O)N1CC2(CC2)C[C@H]1C(=O)Nc1ccc(N2CCOCC2)cc1 [Example 14] come in under 0.5 µg/mL for MIC (anti-bacterial activity)?
Output: False

* * *

# Test system: methicillin-resistant Staphylococcus aureus (MRSA)
# Method: MIC, two-fold agar dilution (CLSI), clinical isolates
# Type: cell-based
# Test parameters: strain MRSA 14-2
Field 'label' (enum: class 1 / class 0). Set to class 1 when MIC (anti-bacterial activity) is strictly under 1 µg/mL; else class 0.

Example cases with answers are listed next.
compound="CCCC[C@H](CN(O)C=O)C(=O)N1CC2(CC2)C[C@H]1c1nc(-c2cccnc2)no1 [Example 11]" category_label="class 1"
compound="CCCC[C@H](CN(O)C=O)C(=O)N1CC2(CC2)C[C@H]1C(=O)Nc1cc[nH]n1 [Example 1]" category_label="class 0"
compound="CCCC[C@H](CN(O)C=O)C(=O)N1CC2(CC2)C[C@H]1C(=O)Nc1ccc(F)c[n+]1[O-] [Example 2]" category_label="class 1"

Input: In plain terms, does CCCC[C@H](CN(O)C=O)C(=O)N1CC2(CC2)C[C@H]1C(=O)Nc1nccc(-c2cccnc2)n1 [Example 9] come in under 1 µg/mL for MIC (anti-bacterial activity)?
Output: class 1

Input: In plain terms, does CCCC[C@H](CN(O)C=O)C(=O)N1CC2(CC2)C[C@H]1c1nc2ccccc2[nH]1 [Example 10] come in under 1 µg/mL for MIC (anti-bacterial activity)?
Output: class 0

Input: In plain terms, does CCCC[C@H](CN(O)C=O)C(=O)N1CC2(CC2)C[C@H]1C(=O)Nc1ncc(C)s1 [Example 6] come in under 1 µg/mL for MIC (anti-bacterial activity)?
Output: class 1

Input: In plain terms, does CCCC[C@H](CN(O)C=O)C(=O)N1CC2(CC2)C[C@H]1c1nnc(-c2ccccn2)o1 [Example 12] come in under 1 µg/mL for MIC (anti-bacterial activity)?
Output: class 0

* * *

# System: Enterococcus faecalis (EFA)
# Method: MIC, two-fold agar dilution (CLSI), clinical isolates
# Assay type: cell-based
# Test parameters: clinical isolate EFA 15-6
The following molecules are listed with their measured Anti-bacterial activity (MIC), strain EFA 15-6 values.

molecule=CCCC[C@H](CC(=O)NO)C(=O)N1CC2(CC2)C[C@H]1C(=O)Nc1cnn(CCN(C)C)c1 endpoint_result="> 32 µg/mL"
molecule=CCCC[C@H](CC(=O)NO)C(=O)N1CC2(CC2)C[C@@H]1c1nc2ccccc2[nH]1 endpoint_result="> 32 µg/mL"
molecule="O=CN(O)C[C@@H](CC1CCCC1)C(=O)N1CC2(CC2)C[C@H]1C(=O)Nc1nccs1 (stereo in doubt)" endpoint_result="4 µg/mL"
molecule=CCCC[C@H](CC(=O)NO)C(=O)N1CC2(CC2)C[C@H]1C(=O)Nc1ncccc1F endpoint_result="> 32 µg/mL"
molecule=O=C(C[C@@H](CC1CCCC1)C(=O)N1CC2(CC2)C[C@H]1C(=O)Nc1ccncn1)NO endpoint_result="> 32 µg/mL"
molecule=CCCC[C@H](CC(=O)NO)C(=O)N1CC2(CC2)C[C@H]1C(=O)Nc1nc(C(F)(F)F)cs1 endpoint_result="8 µg/mL"
molecule=CCCC[C@H](CC(=O)NO)C(=O)N1CC2(CC2)C[C@H]1C(=O)Nc1cccnn1 endpoint_result="> 32 µg/mL"
molecule=Cc1cnc(NC(=O)[C@@H]2CC3(CC3)CN2C(=O)[C@@H](CC(=O)NO)CC2CCCC2)s1 endpoint_result="> 32 µg/mL"

Input: State, for Enterococcus faecalis (EFA), measured Anti-bacterial activity (MIC), strain EFA 15-6 of the molecule listed here: O=CN(O)C[C@@H](CC1CCCC1)C(=O)N1CC2(CC2)C[C@H]1C(=O)Nc1nncs1
Output: 4 µg/mL

Input: State, for Enterococcus faecalis (EFA), measured Anti-bacterial activity (MIC), strain EFA 15-6 of the molecule listed here: CCCC[C@H](CC(=O)NO)C(=O)N1CC2(CC2)C[C@H]1C(=O)Nc1cnccn1
Output: > 32 µg/mL

Input: State, for Enterococcus faecalis (EFA), measured Anti-bacterial activity (MIC), strain EFA 15-6 of the molecule listed here: O=CN(O)C[C@@H](CC1CCCC1)C(=O)N1CC2(CC2)C[C@H]1c1nc2ccccc2[nH]1
Output: 16 µg/mL

* * *

# System: Moraxella catarrhalis (BCA)
# Method: MIC, two-fold agar dilution (CLSI), clinical isolates
# Assay type: cell-based
# Test parameters: strain BCA 14-8
The following compounds are listed with their measured Anti-bacterial activity (MIC) values.
# number only, unit µg/mL dropped from output

compound="O=C(C[C@@H](CC1CCCC1)C(=O)N1CC2(CC2)C[C@H]1C(=O)NC1CC1)NO [Example 68]" readout_kind="Anti-bacterial activity (MIC)" endpoint_result=32
compound="C[C@H]1COc2c(N3CCN(C)CC3)c(F)cc3c(=O)c(C(=O)O)cn1c23 [levofloxacin, reference compound]" readout_kind="Anti-bacterial activity (MIC)" endpoint_result=1
compound="Cc1cc(NC(=O)[C@@H]2CC3(CC3)CN2C(=O)[C@@H](CC(=O)NO)CC2CCCC2)no1 [Example 71]" readout_kind="Anti-bacterial activity (MIC)" endpoint_result=0.25
compound="O=C(C[C@@H](CC1CCCC1)C(=O)N1CC2(CC2)C[C@H]1C(=O)Nc1cccnn1)NO [Example 66]" readout_kind="Anti-bacterial activity (MIC)" endpoint_result=2
compound="O=C(C[C@@H](CC1CCCC1)C(=O)N1CC2(CC2)C[C@H]1C(=O)Nc1ncccc1F)NO [Example 67]" readout_kind="Anti-bacterial activity (MIC)" endpoint_result=2
compound="O=C(C[C@@H](CC1CCCC1)C(=O)N1CC2(CC2)C[C@H]1C(=O)Nc1nccs1)NO [Example 72]" readout_kind="Anti-bacterial activity (MIC)" endpoint_result=0.25

Input: State its Anti-bacterial activity (MIC) for this compound: CCCC[C@H](CC(=O)NO)C(=O)N1CC2(CCCC2)C[C@H]1C(=O)Nc1cc(C)on1 [Example 80]
Output: 8

Input: State its Anti-bacterial activity (MIC) for this compound: CCCC[C@H](CC(=O)NO)C(=O)N1CC2(CCCC2)C[C@H]1C(=O)Nc1ncc(C)s1 [Example 79]
Output: 0.5

Input: State its Anti-bacterial activity (MIC) for this compound: CCCC[C@H](CC(=O)NO)C(=O)N1CC2(CCCC2)C[C@H]1C(=O)Nc1cnccn1 [Example 77]
Output: 0.5

* * *

# System: methicillin-sensitive Staphylococcus epidermidis (MSSE)
# Method: MIC, two-fold agar dilution (CLSI), clinical isolates
# Type: cell-based
# Test parameters: clinical isolate MSSE 15-5
Readout kind: Anti-bacterial activity (MIC), strain MSSE 15-5 (µg/mL)
# number only, unit µg/mL dropped from output

Examples with their reported Anti-bacterial activity (MIC), strain MSSE 15-5 follow.
compound="CCCC[C@H](CC(=O)NO)C(=O)N1CC2(CC2)C[C@H]1C(=O)Nc1nc(C(F)(F)F)cs1 [Example 57]" assayed_target="methicillin-sensitive Staphylococcus epidermidis (MSSE)" endpoint_result=0.125
compound="CCCC[C@H](CC(=O)NO)C(=O)N1CC2(CC2)C[C@H]1C(=O)Nc1ccc(N2CCOCC2)cc1 [Example 43]" assayed_target="methicillin-sensitive Staphylococcus epidermidis (MSSE)" endpoint_result=1
compound="CCCC[C@H](CC(=O)NO)C(=O)N1CC2(CCCC2)C[C@H]1C(=O)Nc1cnccn1 [Example 77]" assayed_target="methicillin-sensitive Staphylococcus epidermidis (MSSE)" endpoint_result=2
compound="Cc1cnc(NC(=O)[C@@H]2CC3(CC3)CN2C(=O)[C@@H](CC(=O)NO)CC2CCCC2)s1 [Example 65]" assayed_target="methicillin-sensitive Staphylococcus epidermidis (MSSE)" endpoint_result=0.06
compound="CCCC[C@H](CC(=O)NO)C(=O)N1CC2(CC2)C[C@H]1C(=O)Nc1cnccn1 [Example 44]" assayed_target="methicillin-sensitive Staphylococcus epidermidis (MSSE)" endpoint_result=1

Now for another entry.
Input: State its Anti-bacterial activity (MIC), strain MSSE 15-5 for this compound: O=CN(O)C[C@@H](CC1CCCC1)C(=O)N1CC2(CC2)C[C@H]1C(=O)Nc1nncs1 [Example 41]
Output: 1

Values from patent US10738028B2
